# System: Acinetobacter calcoaceticus ATCC 15437
# assay-method-text: minimal inhibitory concentration, two-fold agar dilution
# Format: cell-based
# experimental-context: ATCC15437, Muller-Hinton agar, 37°C, 20 hours, read-out: MIC values against the standard strains
Classify: met when MIC is strictly less than 8 µg/mL; not met when MIC is not.

Input CCO/N=C(\C(=O)N[C@@H]1C(=O)N2C(C(=O)[O-])=C(CSc3nc(N)cc[n+]3CC)CS[C@H]12)c1csc(N)n1 [Example 14] ; condition: MIC strictly below 8 µg/mL. Does it hold?
not met

Also COc1cc(N)nc(SCC2=C(C(=O)[O-])N3C(=O)[C@@H](NC(=O)/C(=N\OC(C)(C)C(=O)O)c4csc(N)n4)[C@H]3SC2)[n+]1C [Example 17] , if possible.
met

What about this compound? CCO/N=C(\C(=O)N[C@@H]1C(=O)N2C(C(=O)[O-])=C(CSc3nc(N)cc[n+]3C)CS[C@H]12)c1nsc(N)n1 [Example 6]
met

Request: C[n+]1ccc(N)nc1SCC1=C(C(=O)[O-])N2C(=O)[C@@H](NC(=O)/C(=N\O)c3csc(N)n3)[C@H]2SC1 [Example 10]
met

Repeat for the following compound: CCO/N=C(\C(=O)N[C@@H]1C(=O)N2C(C(=O)[O-])=C(CSc3nc(N)c(N)c(N)[n+]3CC)CS[C@H]12)c1csc(N)n1 [Example 13]
not met

Try CCO/N=C(\C(=O)N[C@@H]1C(=O)N2C(C(=O)[O-])=C(CSc3nc(N)c(N)c(N)[n+]3C)CS[C@H]12)c1nsc(N)n1 [Example 5] next.
met

Then C[n+]1c(SCC2=C(C(=O)[O-])N3C(=O)[C@@H](NC(=O)/C(=N\O)c4csc(N)n4)[C@H]3SC2)nc(N)c(N)c1N [Example 9] ?
met

Same thing, different compound: C[n+]1ccc(N)nc1SCC1=C(C(=O)[O-])N2C(=O)[C@@H](NC(=O)/C(=N\OC(C)(C)C(=O)O)c3csc(N)n3)[C@H]2SC1 [Example 2]
met

###

# Test system: Pseudomonas aeruginosa ATCC 25619
# assay-method-text: minimal inhibitory concentration, two-fold agar dilution
# Assay type: cell-based
# experimental-context: ATCC25619, Muller-Hinton agar, 37°C, 20 hours, read-out: MIC values against the standard strains
measurement-type: MIC (µg/mL)
Form entry: value (µg/mL) — number only.

Quick one: MIC of C[n+]1c(SCC2=C(C(=O)[O-])N3C(=O)[C@@H](NC(=O)/C(=N\O)c4csc(N)n4)[C@H]3SC2)nc(N)c(N)c1N [Example 9] ?
64

Cool, now CC(C)(O/N=C(\C(=O)N[C@@H]1C(=O)N2C(C(=O)[O-])=C(C[n+]3ccccc3)CS[C@H]12)c1csc(N)n1)C(=O)O [Ceftazidime, reference compound]
1

CCO/N=C(\C(=O)N[C@@H]1C(=O)N2C(C(=O)[O-])=C(CSc3nc(N)c4cccnc4[n+]3C)CS[C@H]12)c1csc(N)n1 [Example 31] , same question.
4

Same read-out for CC[n+]1c(SCC2=C(C(=O)[O-])N3C(=O)[C@@H](NC(=O)/C(=N\OC(C)(C)C(=O)O)c4csc(N)n4)[C@H]3SC2)nc(N)c(N)c1N [Example 11] ?
2

Please give the result for CCO/N=C(\C(=O)N[C@@H]1C(=O)N2C(C(=O)[O-])=C(CSc3nc(N)c4ccccc4[n+]3C)CS[C@H]12)c1csc(N)n1 [Example 29] too.
4

Could you do the same for C[n+]1c(SCC2=C(C(=O)[O-])N3C(=O)[C@@H](NC(=O)/C(=N\OC(C)(C)C(=O)O)c4csc(N)n4)[C@H]3SC2)nc(N)c2ccoc21 [Example 32] , please?
1

Further, for CCO/N=C(\C(=O)N[C@@H]1C(=O)N2C(C(=O)[O-])=C(CSc3nc(N)c(N)c[n+]3N)CS[C@H]12)c1csc(N)n1 [Example 46] ?
0.5

// repeat for Cc1c[n+](N)c(SCC2=C(C(=O)[O-])N3C(=O)[C@@H](NC(=O)/C(=N\OC(C)(C)C(=O)O)c4csc(N)n4)[C@H]3SC2)nc1N [Example 57] and report
1

Likewise for C[C@@H](O/N=C(\C(=O)N[C@@H]1C(=O)N2C(C(=O)[O-])=C(CSc3nc(N)c(N)c(N)[n+]3C)CS[C@H]12)c1csc(N)n1)C(=O)O [Example 82-b] ?
1

Continue with CO/N=C(\C(=O)N[C@@H]1C(=O)N2C(C(=O)[O-])=C(CSc3nc(N)c(N)c(N)[n+]3C)CS[C@H]12)c1csc(N)n1 [Example 7]
4

Entry to check: C[n+]1ccc(N)nc1SCC1=C(C(=O)[O-])N2C(=O)[C@@H](NC(=O)/C(=N\OC(C)(C)C(=O)O)c3csc(N)n3)[C@H]2SC1 [Example 2]
1

Follow-up entry: CCO/N=C(\C(=O)N[C@@H]1C(=O)N2C(C(=O)[O-])=C(CSc3nc(N)c(C(=O)O)c[n+]3C)CS[C@H]12)c1csc(N)n1 [Example 25]
2

###

# System: Pseudomonas aeruginosa ATCC 25619
# assay-method-text: minimal inhibitory concentration, two-fold agar dilution
# Assay type: cell-based
# experimental-context: ATCC25619, Muller-Hinton agar, 37°C, 20 hours, read-out: MIC values against the standard strains
# Procedure: These MIC values were taken by employing a two-fold dilution method: that is, two-fold serial dilutions of each of the test compounds were made and dispersed in a Muller-Hinton agar medium; 2µl of the standard test strain which had the 10⁷ CFU(Colony Forming Unit) per ml was inoculated on the medium; and these were incubated at 37°C for 20 hours.
measurement-type: MIC (µg/mL)
Numbers only here, please. The scale is µg/mL.

Give the measured MIC of CCO/N=C(\C(=O)N[C@@H]1C(=O)N2C(C(=O)[O-])=C(CSc3nc(N)c(N)c(N)[n+]3C)CS[C@H]12)c1csc(N)n1 .
0.5

Same question, CCO/N=C(\C(=O)N[C@@H]1C(=O)N2C(C(=O)[O-])=C(CSc3nc(N)cc[n+]3CC)CS[C@H]12)c1csc(N)n1 this time
8

Now the compound CCO/N=C(\C(=O)N[C@@H]1C(=O)N2C(C(=O)[O-])=C(CSc3nc(N)cc[n+]3C)CS[C@H]12)c1nsc(N)n1
0.5

Would you mind doing Nc1cc[n+](N)c(SCC2=C(C(=O)[O-])N3C(=O)[C@@H](NC(=O)/C(=N\OCC(=O)O)c4csc(N)n4)[C@H]3SC2)n1 as well?
4

Same again, this time with CCO/N=C(\C(=O)N[C@@H]1C(=O)N2C(C(=O)[O-])=C(CSc3nc(N)cc[n+]3CC)CS[C@H]12)c1nsc(N)n1
2

How about CCO/N=C(\C(=O)N[C@@H]1C(=O)N2C(C(=O)[O-])=C(CSc3nc(N)c(N)c(N)[n+]3C)CS[C@H]12)c1nsc(N)n1 ?
0.5

Another compound to look at: CCO/N=C(\C(=O)N[C@@H]1C(=O)N2C(C(=O)[O-])=C(CSc3nc(N)cc[n+]3C)CS[C@H]12)c1csc(N)n1
1

Similarly, CC(C)(O/N=C(\C(=O)N[C@@H]1C(=O)N2C(C(=O)[O-])=C(CSc3nc(N)c(N)c[n+]3N)CS[C@H]12)c1csc(N)n1)C(=O)O ?
1

Also check CCO/N=C(\C(=O)N[C@@H]1C(=O)N2C(C(=O)[O-])=C(CSc3nc(N)cc(OC)[n+]3C)CS[C@H]12)c1csc(N)n1
2

Now give it for CCO/N=C(\C(=O)N[C@@H]1C(=O)N2C(C(=O)[O-])=C(CSc3nc(N)c4ccoc4[n+]3C)CS[C@H]12)c1csc(N)n1 too.
0.5

Now this one: CC(C)(O/N=C(\C(=O)N[C@@H]1C(=O)N2C(C(=O)[O-])=C(CSc3nc(N)cc[n+]3N)CS[C@H]12)c1csc(N)n1)C(=O)O
1

Consider next the compound C[n+]1ccc(N)nc1SCC1=C(C(=O)[O-])N2C(=O)[C@@H](NC(=O)/C(=N\O)c3csc(N)n3)[C@H]2SC1 in the same way.
128

Cool, now CO/N=C(\C(=O)N[C@@H]1C(=O)N2C(C(=O)[O-])=C(CSc3nc(N)cc[n+]3C)CS[C@H]12)c1csc(N)n1
8

Please do the same for CCO/N=C(\C(=O)N[C@@H]1C(=O)N2C(C(=O)[O-])=C(CSc3nc(N)cc(OCC(=O)O)[n+]3C)CS[C@H]12)c1csc(N)n1 as well.
8

###

# Test system: Acinetobacter calcoaceticus ATCC 15473
# assay-method-text: minimal inhibitory concentration, two-fold agar dilution
# Format: cell-based
# experimental-context: ATCC15473, Muller-Hinton agar, 37°C, 20 hours, read-out: MIC values against the standard strains
measurement-type: MIC
Note to self: number, then unit, no commentary.

Which MIC reading was recorded for the molecule CC(C)(O/N=C(\C(=O)N[C@@H]1C(=O)N2C(C(=O)[O-])=C(C[n+]3ccccc3)CS[C@H]12)c1csc(N)n1)C(=O)O [Ceftazidime, reference compound] ?
2 µg/mL

Proceed to CCO/N=C(\C(=O)N[C@@H]1C(=O)N2C(C(=O)[O-])=C(CSc3nc(N)c4ccoc4[n+]3C)CS[C@H]12)c1csc(N)n1
8 µg/mL

// same read-out, input: CNc1cc(N)nc(SCC2=C(C(=O)[O-])N3C(=O)[C@@H](NC(=O)/C(=N\OC(C)(C)C(=O)O)c4csc(N)n4)[C@H]3SC2)[n+]1C
8 µg/mL

Now try CCO/N=C(\C(=O)N[C@@H]1C(=O)N2C(C(=O)[O-])=C(CSc3nc(N)cc[n+]3N)CS[C@H]12)c1csc(N)n1 .
4 µg/mL

Another: C[n+]1c(SCC2=C(C(=O)[O-])N3C(=O)[C@@H](NC(=O)/C(=N\OC(C)(C)C(=O)O)c4csc(N)n4)[C@H]3SC2)nc(N)c2ccoc21
8 µg/mL

For C[n+]1c(-c2ccccc2)cc(N)nc1SCC1=C(C(=O)[O-])N2C(=O)[C@@H](NC(=O)/C(=N\OC(C)(C)C(=O)O)c3csc(N)n3)[C@H]2SC1 then?
64 µg/mL

Please answer likewise for Nc1cc[n+](N)c(SCC2=C(C(=O)[O-])N3C(=O)[C@@H](NC(=O)/C(=N\OCC(=O)O)c4csc(N)n4)[C@H]3SC2)n1
4 µg/mL

Same again, this time with CC[C@@H](O/N=C(\C(=O)N[C@@H]1C(=O)N2C(C(=O)[O-])=C(CSc3nc(N)cc[n+]3N)CS[C@H]12)c1csc(N)n1)C(=O)O
8 µg/mL

Another: CCO/N=C(\C(=O)N[C@@H]1C(=O)N2C(C(=O)[O-])=C(CSc3nc(N)c(N)c[n+]3N)CS[C@H]12)c1csc(N)n1
4 µg/mL

And the next one, CCO/N=C(\C(=O)N[C@@H]1C(=O)N2C(C(=O)[O-])=C(CSc3nc(N)c(C(=O)O)c[n+]3C)CS[C@H]12)c1csc(N)n1 ?
32 µg/mL

Record: CN(C)c1cc(N)nc(SCC2=C(C(=O)[O-])N3C(=O)[C@@H](NC(=O)/C(=N\OC(C)(C)C(=O)O)c4csc(N)n4)[C@H]3SC2)[n+]1C
4 µg/mL

// provenance: patent EP0584797A2
